Ref: ChEMBL document CHEMBL4706539

assay: Acute toxicity in iv dosed C57BL/6 mouse assessed as lethal dose; type: organism-based; details: in vivo
Property Measured: LD50 (mg/kg)
All answers are understood in mg/kg, so give the number only.

**Q:** GET /values?readout=LD50&item= `C=C1COc2cc3c(cc21)-c1c(cc(OC)c(OC)c1OC)CC[C@@H]3NC(C)=O`
**A:** 10
